assay: Phase-1 drug-drug interaction study in healthy volunteers (Compound (III) 800 mg, SMV 150 mg, Odalasvir 150 mg loading then 50 mg, once daily): plasma PK; format: in vivo, human; conditions: both sexes, human, in vivo, Group 1, Day 3, Compound (III) alone; read-out: Cmax
observable: Cmax

May I ask what Cmax has been recorded for CC(C)OC(=O)[C@H](C)N[P@](=O)(OC[C@@]1(F)O[C@@H](n2ccc(=O)[nH]c2=O)[C@](C)(O)[C@@H]1O)Oc1ccccc1 [Compound (III)] ?
162 ng/mL

---

assay: Phase-1 drug-drug interaction study in healthy volunteers (Compound (III) 800 mg, SMV 150 mg, Odalasvir 150 mg loading then 50 mg, once daily): plasma PK; assay type: in vivo, human; conditions: both sexes, human, in vivo, Group 1, Day 3, Compound (III) alone; read-out: AUC0-24
observable: AUC0-24 (µg·h/mL)
Give bare numbers, in µg·h/mL.

May I ask what AUC0-24 has been recorded for CC(C)OC(=O)[C@H](C)N[P@](=O)(OC[C@@]1(F)O[C@@H](n2ccc(=O)[nH]c2=O)[C@](C)(O)[C@@H]1O)Oc1ccccc1 ?
0.292

---

assay: PK of single agents vs fixed dose combinations (FDC), single oral dose in healthy volunteers; format: in vivo, human; settings: Arm 1 (reference): single agents together
observable: t1/2term (mean ± SD) (h)
Numbers only, in h.

For orientation, consider the following solved cases.
compound | t1/2term (mean ± SD) / h
C[C@]1(O)[C@H](n2ccc(=O)[nH]c2=O)O[C@](F)(CO)[C@H]1O [Compound A-1] | 19.6
COC(=O)N[C@H](C(=O)N1[C@H](c2nc3cc(-c4cc5ccc4CCc4ccc(c(-c6ccc7[nH]c([C@@H]8C[C@@H]9CCCC[C@@H]9N8C(=O)[C@@H](NC(=O)OC)C(C)C)nc7c6)c4)CC5)ccc3[nH]2)C[C@@H]2CCCC[C@@H]21)C(C)C [ODV, Odalasvir] | 168.6

Okay, here is my list. What is t1/2term (mean ± SD) for each of these?
1. COc1ccc2c(O[C@@H]3C[C@H]4C(=O)N[C@]5(C(=O)NS(=O)(=O)C6CC6)C[C@H]5/C=C\CCCCN(C)C(=O)[C@@H]4C3)cc(-c3nc(C(C)C)cs3)nc2c1C [SMV, Simeprevir, reference compound]
2. C[C@H](NP(=O)(O)OC[C@@]1(F)O[C@@H](n2ccc(=O)[nH]c2=O)[C@](C)(O)[C@@H]1O)C(=O)O [Compound A-3]
3. CC(C)OC(=O)[C@H](C)N[P@](=O)(OC[C@@]1(F)O[C@@H](n2ccc(=O)[nH]c2=O)[C@](C)(O)[C@@H]1O)Oc1ccccc1 [Compound (III)]

8.3
2.6
0.6

---

assay: Phase-1 drug-drug interaction study in healthy volunteers (Compound (III) 800 mg, SMV 150 mg, Odalasvir 150 mg loading then 50 mg, once daily): plasma PK; type: in vivo, human; conditions: both sexes, human, plasma, oral, Group 2, Day 13 (ODV + Compound (III)); read-out: Cmax
observable: Cmax (ng/mL)
Answers are plain numbers, in ng/mL.

May I ask what Cmax has been recorded for COC(=O)N[C@H](C(=O)N1[C@H](c2nc3cc(-c4cc5ccc4CCc4ccc(c(-c6ccc7[nH]c([C@@H]8C[C@@H]9CCCC[C@@H]9N8C(=O)[C@@H](NC(=O)OC)C(C)C)nc7c6)c4)CC5)ccc3[nH]2)C[C@@H]2CCCC[C@@H]21)C(C)C ?
669
